- Test system: ETB
- run.description: ETB radio receptor assay *2, 125I-endothelin-1, guinea pig kidney crude membrane fraction
- Assay type: binding, Guinea pigs
- assay.context: relative activity, 37 °C, 90 minutes
Non-standard residues stand in square brackets, D forms with d. Residues, ends and D or L forms follow the SMILES beside them. 1Nal = N[C@@H](Cc1cccc2ccccc12)C(=O)O
observation.type: Binding Activity on ET Receptor (R. act.) ETB*2

[
  {
    "molecule": "CC(C)C[C@@H]1NC(=O)[C@@H](CC(C)C)NC(=O)[C@H](CC(=O)O)NC(=O)[C@H](Cc2cccc3ccccc23)NC(=O)[C@@H](CC(=O)O)NC(=O)[C@@H](Cc2c[nH]c3ccccc23)NC1=O [Example 23] (cyclo([1Nal]D[dL]L[dW][dD]))",
    "readout.value": 7.7
  },
  {
    "molecule": "CC(C)C[C@@H]1NC(=O)[C@@H](CC(C)C)NC(=O)[C@H](CC(=O)O)NC(=O)[C@@H](C)NC(=O)[C@@H](CC(=O)O)NC(=O)[C@@H](Cc2c[nH]c3ccccc23)NC1=O [Example 15, Cyclo[-D-Asp-D-Ala-Asp-D-Leu-Leu-D-Trp-]] (cyclo(D[dL]L[dW][dD][dA]))",
    "readout.value": 7.7
  },
  {
    "molecule": "CC(C)C[C@H]1NC(=O)[C@H](CC(=O)O)NC(=O)[C@H](C)NC(=O)[C@@H](CC(=O)O)NC(=O)[C@@H](Cc2c[nH]c3ccccc23)NC(=O)[C@H](Cc2ccccc2)NC1=O [Example 57, Cyclo[-D-Asp-Ala-Asp-D-Leu-Phe-D-Trp-]] (cyclo(AD[dL]F[dW][dD]))",
    "readout.value": 2.0
  },
  {
    "molecule": "CC(C)C[C@@H]1NC(=O)[C@@H](CC(C)C)NC(=O)[C@H](C)NC(=O)[C@H](CC(=O)O)NC(=O)[C@@H](CC(=O)O)NC(=O)[C@@H](Cc2c[nH]c3ccccc23)NC1=O [Example 6, cyclo[-D-Asp-Asp-Ala-D-Leu-Leu-D-Trp-]] (cyclo(A[dL]L[dW][dD]D))",
    "readout.value": 7.1
  }
]
